- Tested on: Escherichia coli
- Protocol: In vivo antibacterial activity in mice infected with Escherichia coli (intraperitoneal), compound given orally at infection and 4 hours later; mortality through third day
- Experimental context: Escherichia coli, po, 72 h, 4 LD50 E. coli infected mice; oral; read-out: ED50
This listing pairs molecules with measured ED50.
Property label: ED50 (mg/kg)

[[record]]
smiles_entry = "CCCCCC(=O)OCOC(=O)c1cn(CC(F)(F)F)c2cc3c(cc2c1=O)OCO3"
system = "Escherichia coli"
property_label = "ED50"
output_unit = "mg/kg"
meas_value = 25

[[record]]
smiles_entry = "O=C(OCOC(=O)c1cn(CC(F)(F)F)c2cc3c(cc2c1=O)OCO3)c1ccccc1"
system = "Escherichia coli"
property_label = "ED50"
output_unit = "mg/kg"
meas_value = 34

[[record]]
smiles_entry = "CCC(C)(C)C(=O)OCOC(=O)c1cn(CC(F)(F)F)c2cc3c(cc2c1=O)OCO3"
system = "Escherichia coli"
property_label = "ED50"
output_unit = "mg/kg"
meas_value = 40

[[record]]
smiles_entry = "CC(C)C(=O)OCOC(=O)c1cn(CC(F)(F)F)c2cc3c(cc2c1=O)OCO3"
system = "Escherichia coli"
property_label = "ED50"
output_unit = "mg/kg"
meas_value = 73

